# Test system: Kappa-type opioid receptor (Mus musculus, UniProt P33534)
# Experiment summary: Agonist activity at kappa opioid receptor in ddy mouse vas deferens assessed as inhibition of electric stimulation-induced contraction
pIC50: −log10 of the molar value.
Is pIC50 at least 9? Then criterion met. If not, criterion not met.

Compound structure: CN(C(=O)/C=C/c1ccoc1)[C@@H]1CC[C@@]2(O)[C@H]3Cc4cccc5c4[C@@]2(CCN3CC2CC2)[C@H]1O5
Test system: Kappa-type opioid receptor (Mus musculus, UniProt P33534)
Group: criterion not met
--
Compound structure: CN(C(=O)Cc1ccc(Cl)c(Cl)c1)[C@H]1CC[C@@]2(O)[C@H]3Cc4ccc(O)c5c4[C@@]2(CCN3CC2CC2)[C@H]1O5
Test system: Kappa-type opioid receptor (Mus musculus, UniProt P33534)
Group: criterion met
--
Compound structure: CCCCCCN[C@@H]1CC[C@@]2(O)[C@H]3Cc4ccc(O)c5c4[C@@]2(CCN3CC2CC2)[C@H]1O5
Test system: Kappa-type opioid receptor (Mus musculus, UniProt P33534)
Group: criterion not met
--
Compound structure: CN(C(=O)/C=C/c1cccc(C(F)(F)F)c1)[C@@H]1CC[C@@]2(O)[C@H]3Cc4ccc(O)c5c4[C@@]2(CCN3CC2CC2)[C@H]1O5
Test system: Kappa-type opioid receptor (Mus musculus, UniProt P33534)
Group: criterion met
--
Compound structure: CN(C(=O)/C=C/c1cccc([N+](=O)[O-])c1)[C@@H]1CC[C@@]2(O)[C@H]3Cc4ccc(O)c5c4[C@@]2(CCN3CC2CC2)[C@H]1O5
Test system: Kappa-type opioid receptor (Mus musculus, UniProt P33534)
Group: criterion met
--
Compound structure: CN(C(=O)/C=C/c1ccccc1)[C@@H]1CC[C@@]2(O)[C@H]3Cc4ccc(O)c5c4[C@@]2(CCN3CC2CC2)[C@H]1O5
Test system: Kappa-type opioid receptor (Mus musculus, UniProt P33534)
Group: criterion met
